biological target: norovirus GII.17 Saitama strain virus-like particle (VLP) (norovirus GII.17 Saitama strain); assay: BLI (BLItz), biotinylated peptide on SA chip, VLP in solution
Ends that are not written are not given here.
assay-readout: pKd
By convention, pKd is the negative base-10 log of a molar concentration.

Take a look at these entries with their results.
FVWSRRTGLY (also: biotinylated via PEG3 (AEEEA)-Trp spacer, attachment site and resin-derived C-terminal Lys or Cys not given here) [norovirus-binding peptide of SEQ ID NO: 205]    6.96
VWWGRRISRF (also: biotinylated via PEG3 (AEEEA)-Trp spacer, attachment site and resin-derived C-terminal Lys or Cys not given here) [norovirus-binding peptide of SEQ ID NO: 302]    7.55
CKARSARGVS (also: biotinylated via PEG3 (AEEEA)-Trp spacer, attachment site and resin-derived C-terminal Lys or Cys not given here) [norovirus-binding peptide of SEQ ID NO: 288]    7.92
FVWRRRAGLY (also: biotinylated via PEG3 (AEEEA)-Trp spacer, attachment site and resin-derived C-terminal Lys or Cys not given here) [norovirus-binding peptide of SEQ ID NO: 167]    9.16
RSMSLHVSMT (also: biotinylated via PEG3 (AEEEA)-Trp spacer, attachment site and resin-derived C-terminal Lys or Cys not given here) [norovirus-binding peptide of SEQ ID NO: 283]    8.86

The binder RFLVPVVKVM (also: biotinylated via PEG3 (AEEEA)-Trp spacer, attachment site and resin-derived C-terminal Lys or Cys not given here) [norovirus-binding peptide of SEQ ID NO: 103] showed pKd equal to 8.09

Just for reference, patent US20220227809A1 is where these values come from.
